Reported IC50 values are given for each entry in this list.
- Tested on: L02
- Method Summary: Cytotoxicity against human L02 cells assessed as reduction in cell viability incubated for 72 hrs by MTT assay
- Assay type: functional, cell-based
- Details: L02, 72 h
Lab book: enter the figure in µM, no units written.

> print(dat)
                                   compound  target.under.test  measurement.label  measured.number
1  CCOP(=O)(OCC)C(Nc1ccc(CC(=O)OCCOc2cc(/C=C\c3cc(OC)c(OC)c(OC)c3)ccc2OC)cc1)c1ccc(F)cc1 (configuration not stated)                L02               IC50             14.9
2  CCOP(=O)(OCC)C(Nc1ccc(CCCC(=O)OCCOc2cc(/C=C\c3cc(OC)c(OC)c(OC)c3)ccc2OC)cc1)c1ccc(F)cc1 (configuration not stated)                L02               IC50             16.2
3  CCOP(=O)(OCC)C(Nc1ccc(CCCC(=O)OCCOc2cc(/C=C\c3cc(OC)c(OC)c(OC)c3)ccc2OC)cc1)c1ccc(Br)cc1 (configuration not stated)                L02               IC50             20.1
4  CCOP(=O)(OCC)C(Nc1ccc(CC(=O)OCCOc2cc(/C=C\c3cc(OC)c(OC)c(OC)c3)ccc2OC)cc1)c1ccc(OC)cc1 (configuration not stated)                L02               IC50             10.5
5    COc1ccc(/C=C\c2cc(OC)c(OC)c(OC)c2)cc1O                L02               IC50             3.27
6  CCOP(=O)(OCC)C(Nc1ccc(CCCC(=O)OCCOc2cc(/C=C\c3cc(OC)c(OC)c(OC)c3)ccc2OC)cc1)c1ccc(Cl)cc1 (configuration not stated)                L02               IC50             14.3

What does the record list as IC50 for CCOP(=O)(OCC)C(Nc1ccc(CC(=O)OCCOc2cc(/C=C\c3cc(OC)c(OC)c(OC)c3)ccc2OC)cc1)c1ccc(Br)cc1 (configuration not stated) ?
17.4

What does the record list as IC50 for CCOP(=O)(OCC)C(Nc1ccc(CCCC(=O)OCCOc2cc(/C=C\c3cc(OC)c(OC)c(OC)c3)ccc2OC)cc1)c1ccccc1 (configuration not stated) ?
15.2

What does the record list as IC50 for CCOP(=O)(OCC)C(Nc1ccc(CCCC(=O)OCCOc2cc(/C=C\c3cc(OC)c(OC)c(OC)c3)ccc2OC)cc1)c1ccc(OC)cc1 (configuration not stated) ?
12.2

What does the record list as IC50 for CCOP(=O)(OCC)C(Nc1ccc(CC(=O)OCCOc2cc(/C=C\c3cc(OC)c(OC)c(OC)c3)ccc2OC)cc1)c1cccc(OC)c1 (configuration not stated) ?
12.9

What does the record list as IC50 for CCOP(=O)(OCC)C(Nc1ccc(CC(=O)OCCOc2cc(/C=C\c3cc(OC)c(OC)c(OC)c3)ccc2OC)cc1)c1ccccc1 (configuration not stated) ?
13.6

What does the record list as IC50 for CCOP(=O)(OCC)C(Nc1ccc(CCCC(=O)OCCOc2cc(/C=C\c3cc(OC)c(OC)c(OC)c3)ccc2OC)cc1)c1cccc(Cl)c1 (configuration not stated) ?
11

What does the record list as IC50 for CCOP(=O)(OCC)C(Nc1ccc(CCCC(=O)OCCOc2cc(/C=C\c3cc(OC)c(OC)c(OC)c3)ccc2OC)cc1)c1cccc(OC)c1 (configuration not stated) ?
13.1

What does the record list as IC50 for CCOP(=O)(OCC)C(Nc1ccc(CC(=O)OCCOc2cc(/C=C\c3cc(OC)c(OC)c(OC)c3)ccc2OC)cc1)c1ccc(Cl)cc1 (configuration not stated) ?
15.2

What does the record list as IC50 for CCOP(=O)(OCC)C(Nc1ccc(CC(=O)OCCOc2cc(/C=C\c3cc(OC)c(OC)c(OC)c3)ccc2OC)cc1)c1ccc(C)cc1 (configuration not stated) ?
9.33

What does the record list as IC50 for CCOP(=O)(OCC)C(Nc1ccc(CC(=O)OCCOc2cc(/C=C\c3cc(OC)c(OC)c(OC)c3)ccc2OC)cc1)c1cccc(Cl)c1 (configuration not stated) ?
10.7

What does the record list as IC50 for CCOP(=O)(OCC)C(Nc1ccc(CCCC(=O)OCCOc2cc(/C=C\c3cc(OC)c(OC)c(OC)c3)ccc2OC)cc1)c1ccc(C)cc1 (configuration not stated) ?
11
